Recorded growth, one value per entry.
System: OVCAR-3 ovarian
Test: NCI-60 one-dose screen, 48 h (100 = growth as untreated, 0 = no growth, -100 = all killed)
Settings: 10 µM unless noted
About 83,000 compounds went through this panel and 20% of them were active in at least one assay; those are over-represented in the sample as a whole.
// note: answer is a bare numeric in %

Entry Cc1ccc(C(=O)Nc2ccc(CNCCN3CCOCC3)c(C(F)(F)F)c2)cc1C#Cc1cnc2cccnn12 — recorded growth = 21.6

Entry NS(=O)(=O)c1nnc(/N=C/c2c(O)[nH]c3ccccc23)s1 — recorded growth = 107

Entry Cc1[nH]c(C(=O)Nc2ccccc2OCc2cccc(C(=O)NC3CCNC3)c2)c(Cl)c1Cl (configuration not stated) — recorded growth = -26.7

Entry CS(=O)(=O)c1ccc(/C(=N/N=C(N)N)c2ccc(F)cc2)cc1 — recorded growth = 95.6

Entry Cn1cc(-c2nnc(N)nc2-c2c[nH]c3ccc(F)cc23)c2cc(Br)ccc21 — recorded growth = 10.7

Entry CC1(C)CC[C@]2(C(=O)O)CC[C@]3(C)C(=CC[C@@H]4[C@@]5(C)CC[C@H](NOCCCN)C(C)(C)[C@@H]5CC[C@]43C)[C@@H]2C1 — recorded growth = 95.6

Entry N#C/C(=N\Nc1ccc(F)cc1)C(=O)Nc1cc(-c2ccccc2)nn1-c1ccccc1 — recorded growth = 11.2

Entry COc1cc(NC(=O)Nc2cccc(-c3cc(=O)c4c(OC)c(OC)c(OC)cc4o3)c2)cc(OC)c1OC — recorded growth = 40.1

Entry CC(=C(c1ccc(OCCN(C)C)cc1)c1ccc(OCCN(C)C)cc1)c1ccc(Cl)cc1 — recorded growth = -55.5

Entry Oc1[nH]c2ccc(Cl)cc2c1N=Nc1nc(N=Nc2c(O)[nH]c3ccc(Cl)cc23)nc(N2CCOCC2)n1 — recorded growth = 52.7

Entry O=C(CSc1nc2ccccc2c(=O)n1CCc1ccccc1)Nc1ccc(S(=O)(=O)Nc2ccc(Cl)nn2)cc1 — recorded growth = 98.8

Entry CN1c2ccccc2Sc2cc(/C=N/Nc3ccnc4cc(Cl)ccc34)ccc21 — recorded growth = 90.8

Entry CC1CCN(CC(=O)Nn2c(COc3ccccc3)nc3ccccc3c2=O)CC1 — recorded growth = 94.8

Entry CCNCCOc1ccc(/C(=C(/CC)c2ccc(Cl)cc2)c2ccc(OCCCN(C)C)cc2)cc1 — recorded growth = -77.4

Entry C#C[C@]1(O)CC[C@H]2[C@@H]3CC=C4c5sc(Nc6cc(Cl)ccc6OC)nc5CC[C@]4(C)[C@H]3CC[C@@]21C — recorded growth = 25.3

Entry Cc1ccc(C(=O)Nc2ccc(CNCCN3CCNCC3)c(C(F)(F)F)c2)cc1C#Cc1cnc2cccnn12 — recorded growth = -20.5

Entry C/C(CC1(O)C(=O)Nc2ccccc21)=N\O (configuration not stated) — recorded growth = 106

----------
System: SR leukemia
Test: NCI-60 one-dose screen, 48 h (100 = growth as untreated, 0 = no growth, -100 = all killed)
Conditions: 10 µM unless noted
This is part of a sample that, as a whole, favours compounds with a hit. Of some 83,000 tested, about 20% had one in any assay. Active and inactive are the calls of the source. How the source made its calls: active means growth percent below 10; inactive means the rest.
Recorded growth, one value per entry.

// worked examples, growth included
compound | growth
O=c1oc2ccc(-c3ccc(F)cc3F)cc2c(=O)n1-c1ccc(Br)cc1F | 85.1% (inactive)
CCN(CC)c1ccc(/C=N/NC(=O)c2ccc(S(N)(=O)=O)cc2)c(O)c1 | 10.5% (inactive)
Oc1ccc(-c2nc3ccc(/C(=N\N=C\c4ccc(Cl)cc4)c4ccccc4)cc3[nH]2)cc1 | 62.1% (inactive)
Cc1[nH]c(C(=O)Nc2ccccc2OCc2cccc(C(=O)NC3CCNC3)c2)c(Cl)c1Cl (centres undefined) | -0.792% (active)
O=[N+]([O-])c1ccc(NC(=S)NNC(=S)Nc2ccc(F)cc2)cc1 | 91% (inactive)

Entry CN(C)CCCOc1ccc(C(=C(c2ccccc2)C2CCCC2)c2ccc(OCCCN(C)C)cc2)cc1 — recorded growth = -37% (active)

Entry Cn1cc(-c2nn3cc(-c4ccncc4)nc3s2)c2cc(F)ccc21 — recorded growth = 1.87% (active)

Entry FC(F)(F)c1cc(Br)cc(-c2cc(-c3ccc4c(c3)OCCO4)[nH]n2)c1 — recorded growth = 20.8% (inactive)

Entry CC(=O)Nc1cc(N2CCOCC2)c2nc(NC(=O)c3[nH]c(C)c(Cl)c3Cl)sc2c1 — recorded growth = 28.6% (inactive)

----------
Test system: UO-31 renal
Test: NCI-60 one-dose screen, 48 h (100 = growth as untreated, 0 = no growth, -100 = all killed)
Settings: 10 µM unless noted
The panel holds about 83,000 compounds, 20% with a hit somewhere; the sample as a whole holds those more often. Calls of active or inactive are those of the source. How the source made its calls: active means growth percent below 10; inactive means the rest.
Recorded growth, one value per entry.

// worked examples, growth included
chemical.string | growth
C=C(C)[C@@H]1CC[C@]2(COP(=O)(OCC)OCC)CC[C@]3(C)[C@H](CC[C@@H]4[C@@]5(C)CC[C@H](OP(=O)(OCC)OCC)C(C)(C)[C@@H]5CC[C@]43C)[C@@H]12 | 22.6% (inactive)
C/C(=N\NC(N)=S)c1nnn(-c2ccc([N+](=O)[O-])cc2)c1C | 70.5% (inactive)
O=C(/C=C/c1ccccc1Cl)Nc1ncc(Cc2cc(Cl)ccc2Cl)s1 | 48.2% (inactive)

Next molecule, please.
The molecule O=C(N/N=C/c1cc2ccccc2nc1Cl)c1cc(-c2nc3ccccc3[nH]2)nc2ccccc12 , when measured on UO-31 renal, yielded growth of 70.7% (inactive)

----------
Test system: OVCAR-4 ovarian
Assay: NCI-60 one-dose screen, 48 h
Settings: 10 µM unless noted
Protocol: Growth inhibition of the OVCAR-4 human tumor cell line is measured as a screen for anti-cancer activity. Cells are grown in 96 well plates and exposed to the test compound for 48 hours. Compounds are tested at a single concentration, which is 10^-5 M for most compounds. The reported endpoint is percent growth (GI% or GIPRCNT), where numbers from 0 - 100% represent growth inhibition, and numbers from -100% - 0 represent cell death. For example, a value of 40 represents 60% growth inhibition. […]
This is part of a sample that, as a whole, favours compounds with a hit. Of some 83,000 tested, about 20% had one in any assay. Activity calls are given as the source filed them. The calls were made as follows: active = growth percent below 10; inactive = the rest.
Reply using exactly one outcome from active, inactive

Examples from the recorded data:
molecule | label.value
O=C(CCCCCC/C=C\c1csc(Br)n1)NO | inactive
CCCCN1C(=O)/C(=c2\sc3n(c2=O)C2C(NN=3)N(CC)C(=O)N2CC)c2cccc(C)c21 (stereo not given) | inactive
N#Cc1c(-c2cccs2)cc(-c2cnccn2)nc1SCC(=O)N/N=C/c1ccc(Cl)cc1 | inactive

# outcome recorded in this test, key = Cc1[nH]c(C(=O)Nc2ccccc2OCc2cccc(C(=O)NC3CCNC3)c2)c(Cl)c1Cl (stereo not given) inactive

# outcome recorded in this test, key = NS(=O)(=O)c1cccc(Nc2nc(SCC(=O)c3ccc(Cl)cc3)nc3c2CCC3)c1 inactive

# outcome recorded in this test, key = COc1ccc(C(C)=C(c2ccc(OCCN(C)C)cc2)c2ccc(OCCN(C)C)cc2)cc1 active

# outcome recorded in this test, key = CCCC/C(=C\c1ccc(O)c(O)c1)C(=O)NC(Cc1ccccc1)C(=O)C(=O)NCCc1ccc(OC)cc1 (stereo not given) inactive

----------
System: TK-10 renal
Experiment: NCI-60 one-dose screen, 48 h (100 = growth as untreated, 0 = no growth, -100 = all killed)
Settings: 10 µM unless noted
Compounds without any hit were thinned out: in the full panel of roughly 83,000, 20% have a hit.
experimental.readout: growth (%)
// note: answer is a bare numeric in %

// worked examples, growth included
compound | growth, %
Brc1ccc2[nH]cc(-c3nn4cc(-c5nccs5)nc4s3)c2c1 | 98.3
O=C1C(SCc2ccccc2)=C(Cl)CN1c1ccccc1 | 136

Entry O=C(Nc1ccc(N2CCOCC2)cc1)Nc1ccc2c(ccn2C(=O)c2cccc(F)c2)c1 — recorded growth = 86.9

Entry CCCCc1nc2c(N)nc3ccccc3c2n1Cc1cccc(CN)c1 — recorded growth = 89.9

Entry CCOP(=O)(OCC)OC[C@]12CCC(C)(C)CC1C1=CC[C@@H]3[C@@]4(C)CCCNC(C)(C)[C@@H]4CC[C@@]3(C)[C@]1(C)CC2 (some centres undefined) — recorded growth = 90.4

Entry CCC1=Cc2c(OC)cccc2OC12C=Cc1c(OC)cccc1O2 (centres undefined) — recorded growth = 101

Entry CC(=C(c1ccc(OCCN(C)C)cc1)c1ccc(OCCN(C)C)cc1)c1ccc(Cl)cc1 — recorded growth = -72.4

Entry CNC(=O)c1cc(Oc2ccc3c(c2)sc2nc(-c4ccc(N(C)C)cc4)cn23)ccn1 — recorded growth = 77.2

Entry CCCC/C(=C\c1ccc(O)c(O)c1)C(=O)NC(Cc1ccccc1)C(=O)C(=O)NCCc1ccc(OC)cc1 (centres undefined) — recorded growth = 107
